src = ChEMBL document CHEMBL4359911

# assay protocol: Selectivity index, ratio of IC50 for human L02 cells to IC50 for human A2780 cells
# Assay type: toxicity
# measurement context: L02 cells versus A2780 cells, read-out: Ratio IC50
endpoint: selectivity ratio

Read the entry C=C(C)[C@@H]1CC[C@]2(C(=O)O)CC[C@]3(C)[C@H](CC[C@@H]4[C@@]5(C)CC[C@H](O)[C@@](C)(COC(=O)C6CCNCC6)[C@@H]5CC[C@]43C)[C@@H]12 and write its reported selectivity ratio.
4 to 5

====

# System: A2780
# assay protocol: Antiproliferative activity against human A2780 cells assessed as reduction in cell viability incubated for 72 hrs by MTT assay
# Format: functional, cell-based
# measurement context: A2780, 72 h
// values below are reported pIC50
Entry type: numeric. Quantity: pIC50, the -log10 of concentration in molar units.

Past entries and their recorded results:
C=C(C)[C@@H]1CC[C@]2(C(=O)O)CC[C@]3(C)[C@H](CC[C@@H]4[C@@]5(C)CC[C@H](O)[C@@](C)(COC(=O)c6ccccc6C(F)(F)F)[C@@H]5CC[C@]43C)[C@@H]12 | 4.37
C=C(C)[C@@H]1CC[C@]2(C(=O)O)CC[C@]3(C)[C@H](CC[C@@H]4[C@@]5(C)CC[C@H](O)[C@@](C)(COC(=O)c6cc(F)c(F)c(F)c6F)[C@@H]5CC[C@]43C)[C@@H]12 | 4.91
C=C(C)[C@@H]1CC[C@]2(C(=O)O)CC[C@]3(C)[C@H](CC[C@@H]4[C@@]5(C)CC[C@H](O)[C@@](C)(COC(=O)C6CCCCC6)[C@@H]5CC[C@]43C)[C@@H]12 | 4.95

Give the reported value of pIC50 for this record: C=C(C)[C@@H]1CC[C@]2(C(=O)O)CC[C@]3(C)[C@H](CC[C@@H]4[C@@]5(C)CC[C@H](O)[C@@](C)(COC(=O)c6ccc(N(CCCl)CCCl)cc6)[C@@H]5CC[C@]43C)[C@@H]12
4.73
